system: HCT116; test: AC50 cell viability (CellTiter-Glo); higher = less potent; conditions: 48 h
Counter-ions that a name gives are not always drawn.
Labelling field: enter yes if recorded AC50 cell viability is less than 10 µM. Enter no if it equals or exceeds that cut-off.

# Molecule, Answer label
measured = [
    ("OC1=CC2=C(C(=C1)O)C(=O)\\C=C(/O2)C3=CC=CC=C3", "no"),
    ("NC(=O)c1cccc(-c2cc(Nc3ccc(OC(F)(F)F)cc3)ncn2)c1", "no"),
    ("COc1cc2nc(-c3cc(F)ccc3O)nc(N[C@@H]3CNC[C@H]3C(C)(C)O)c2cc1OC", "yes"),
    ("CC(C)n1cnc2c(NCCCCCCNC(=O)OC(C)(C)C)nc(NCCO)nc21", "no"),
]

Challenge: Below 10 µM on AC50 cell viability? Entry CCOC(CN1C(=O)[C@](CC(=O)Nc2ccc(C)cc2)(NC(=O)Nc2ccc(C)cc2)c2ccccc21)OCC [AG-041R]
Response given: no

Challenge: Answer whether the molecule CO[C@@H](C(=O)N1Cc2[nH]nc(NC(=O)c3ccc(N4CCN(C)CC4)cc3)c2C1)c1ccccc1 has AC50 cell viability strictly less than 10 µM
Response given: yes

Challenge: # TODO verify AC50 cell viability < 10 µM strictly for this molecule: c1cc(OCCN2CCCCC2)cc(-c2n[nH]c3ccc(-c4nc[nH]n4)cc23)c1
Response given: no

Challenge: Given the entry COc1ccc2c(c1)[C@]1(C[C@H]1c1ccc3c(/C=C/c4ccc(CN5C[C@@H](C)O[C@@H](C)C5)cc4)n[nH]c3c1)C(=O)N2 , would its reported AC50 cell viability be below 10 µM?
Response given: no

Challenge: # strict comparison: is reported AC50 cell viability < 10 µM? input = Cc1ncc(NC(=O)c2ccc(CN3CCN(C)CC3)c(C(F)(F)F)c2)cc1Nc1nccc(-c2cccnc2)n1 [Flumatinib mesylate]
Response given: no

---

tested on: HCT116; assay: efficacy (fitted maximal change in viability relative to DMSO control); higher = less cytotoxic (negative = loss of viability); details: 48 h
Value kind: efficacy (%)
Lab book: enter the figure in %, no units written.

Consider the following illustrative entries.
# Structure string, Result unit, efficacy
records = [
    ("OC1=CC2=C(C(=C1)O)C(=O)\\C(=C(/O2)C3=CC(=C(O)C=C3)O)O", "%", -10.2),
    ("C=CCN(/C=C1\\C(=O)O[C@@H](COC)[C@]2(C)C1=C(O)C(=O)C1=C2[C@@H](OC(C)=O)C[C@]2(C)C(=O)CC[C@H]12)CC=C", "%", -20.5),
    ("CONC(=O)Nc1ccc(-c2sc3c(c2CN(C)C)c(=O)n(-c2ccc(OC)nn2)c(=O)n3Cc2c(F)cccc2F)cc1", "%", -67.3),
]

Challenge: Output efficacy of CNc1nc(Nc2ccc(C(=O)N3CCOCC3)cc2OC)ncc1Cl
Response given: -12.2

---

tested on: HCT116; assay: efficacy (fitted maximal change in viability relative to DMSO control); higher = less cytotoxic (negative = loss of viability); details: 48 h
Structures can show the parent of a compound that is named as a salt.
The entries below come with measured efficacy values attached.
The reply should be a number in %, with the unit left off.

# Molecule, efficacy, %
measured = [
    ("Nc1cccc2c1C(=O)N(C1CCC(=O)NC1=O)C2=O (stereo not drawn) [Pomalidomide]", -14.1),
    ("CCN1C(=O)\\C(=C/C2=CN=C(NC3=CC=C(C=C3)N4CCN(C)CC4)N=C12)C5=C(Cl)C=C(C=C5)C6=CN=CS6", -59),
    ("COc1cc(C[C@@H](CO)[C@H](CO)Cc2ccc(O)c(OC)c2)ccc1O", 9),
    ("COCCn1c2c([n+](Cc3cnccn3)c1C)C(=O)c1ccccc1C2=O [Sepantronium bromide]", -93.8),
    ("Cc1ccc([S+](=O)([O-])Nc2cc(-c3ccc(C#N)s3)ccc2C)cc1", -59.9),
]

Challenge: Give the value of efficacy reported for the following: CN1CCN(CCCN2c3ccccc3Sc3ccc(C(F)(F)F)cc32)CC1 [Trifluoperazine hydrochloride]
Response given: -119

Challenge: Fill in efficacy for record Nc1nccc(-c2ccc3noc(-c4ccc(Cl)cc4)c3c2)n1
Response given: -55

Challenge: Return efficacy for the following molecule: CC(C)(C)OC(=O)Nc1ccc(-c2cc(C(=O)NCCCCCCC(=O)NO)no2)cc1
Response given: -91.5
